# Tested on: MS2 coat protein
# Experiment Summary: apparent KD of MS2 coat protein; designed switch direction (-1 OFF switch, 1 ON switch): -1; higher = weaker reporter binding
# Experimental Setup: input ligand: none

{"Query Sequence": "ACUGGAGCAGGAUAUGCAUUCGUGCUUCGGCACGUAAGGUCACAUGAGGAUCACCCAUGUAGAAGGGCUCCAGU [E2/6-D1] (Eterna round: R97, puzzle: Exclusion 2)", "Target Or Test System": "MS2 coat protein", "Unit Tag": "nM", "apparent KD of MS2 coat protein": 19.7}
{"Query Sequence": "GGUGUACUAGUCAGGAUAUGAUUAAUACCAAAGAAUCAGAAGGGACAUGAGGAUCACCCAUGUAAAGAAGGAGA [BmEX4 A.23] (Eterna round: R97, puzzle: Brourd's mod of Exclusion 4)", "Target Or Test System": "MS2 coat protein", "Unit Tag": "nM", "apparent KD of MS2 coat protein": 32.5}
{"Query Sequence": "AUCCAACAUGAGGAUCACCCAUGUGAGGAUAUGCCCAAAACUCUUCGAUCCGAAGAGCGCAGAAGGCACAUGAA [EX1 A.18] (Eterna round: R97, puzzle: Exclusion 1)", "Target Or Test System": "MS2 coat protein", "Unit Tag": "nM", "apparent KD of MS2 coat protein": 13.2}
{"Query Sequence": "CCCGCGCGUGUAGGAUAUGGCUCGGUGUCUGGGCCAGAAGGACAUGAGGAUCACCCAUGUCUGCGGGUGUGGGCGUGGUUUGGG [-36, -33 kcal A 14%] (Eterna round: R96, puzzle: Exclusion NG 1)", "Target Or Test System": "MS2 coat protein", "Unit Tag": "nM", "apparent KD of MS2 coat protein": 27.2}
{"Query Sequence": "GUUGUGUGAGGAUAUGCCUGGCCGUGAGGCCGGAUUGGGUGGCAGAAGGUACAUGAGGAUCACCCAUGUACGGG [salish99_ex4_4_007] (Eterna round: R97, puzzle: Exclusion 4)", "Target Or Test System": "MS2 coat protein", "Unit Tag": "nM", "apparent KD of MS2 coat protein": 30.9}
{"Query Sequence": "CAGAACAGAGGAUAUACAUGAGGAUCACCCAUGUGUUCCAGCUAGGAGACUAGCAUAUGUAGAAGGCUGUUCUG [Mat - Exclusion 3 - JL Mod - D12] (Eterna round: R97, puzzle: Exclusion 3)", "Target Or Test System": "MS2 coat protein", "Unit Tag": "nM", "apparent KD of MS2 coat protein": 161}
{"Query Sequence": "UUUCAACGGUAGGAUAUCGAGACUACGACUAGCCGAGAAGGGCCGACAUGAGGAUCACCCAUGUGCCUCACCCG [Eternabot (L1) Solution 56] (Eterna round: R97, puzzle: Exclusion 6)", "Target Or Test System": "MS2 coat protein", "Unit Tag": "nM", "apparent KD of MS2 coat protein": 23.9}
{"Query Sequence": "AGUUCACAUGAGGAUCACCCAUGUGAGGAUAUGGAUUCGCUGGCCGUAGCCAGUGGAUCCAGAAGGCGCGUGAU [JL-ex1-4.15] (Eterna round: R97, puzzle: Exclusion 1)", "Target Or Test System": "MS2 coat protein", "Unit Tag": "nM", "apparent KD of MS2 coat protein": 65.1}
{"Query Sequence": "CCUAGUUGGUAAGGAUAUCCUACACUAUUCUGACCCGUGCAAGCUACAUGAGGAUCACCCAUGUGGGAGAAGGUGCGUCAACGC [Design 11] (Eterna round: R96, puzzle: Exclusion NG 2)", "Target Or Test System": "MS2 coat protein", "Unit Tag": "nM", "apparent KD of MS2 coat protein": 32.9}
{"Query Sequence": "GGCACACAUGAGGAUCACCCAUGUCAGGAUAUGUGGCGAUCGUCGAAAGACGAUAGCCACAGAAGGGACAGGCC [Eli x1 4.25] (Eterna round: R97, puzzle: Exclusion 1)", "Target Or Test System": "MS2 coat protein", "Unit Tag": "nM", "apparent KD of MS2 coat protein": 49.8}
{"Query Sequence": "GCGCCAUCGUGAGAUGGCGUAAUUACAUGAGGAUCACCCAUGUAGGAUAUCGAUUGCUUUGCAGUCGAGAAGGGCAUGUAUAAU [JL ENG3 3.94] (Eterna round: R96, puzzle: Exclusion NG 3)", "Target Or Test System": "MS2 coat protein", "Unit Tag": "nM", "apparent KD of MS2 coat protein": 37.9}
{"Query Sequence": "CUUCUGUGAGGAUAUGUUAGUUCCCAGCAAAUCGCUGGGAGACAGAAGGCACAUGAGGAUCACCCAUGUGGGCG [Vexeanra] (Eterna round: R96, puzzle: Exclusion 4)", "Target Or Test System": "MS2 coat protein", "Unit Tag": "nM", "apparent KD of MS2 coat protein": 64.7}
{"Query Sequence": "AGUACUAACACGUUAGUGUUAGUACAAUAAGCUUGUGAAACAUGAGGAUCACCCAUGUCCUCAUAAGCUCGUCUUAU [salish99_TOv2_r3_056] (Eterna round: R96, puzzle: Sensor v3, turn-off variant 2)", "Target Or Test System": "MS2 coat protein", "Unit Tag": "nM", "apparent KD of MS2 coat protein": 17.9}
{"Query Sequence": "GGUGAGCUAGGAUAUGCUUUGGGAACGCAUUCCUUCGAUAAACUUGAGGAUCACCCAAGUAGAAGGAGCUUGCC [salish99_ex2_r4_029] (Eterna round: R97, puzzle: Exclusion 2)", "Target Or Test System": "MS2 coat protein", "Unit Tag": "nM", "apparent KD of MS2 coat protein": 34}
{"Query Sequence": "ACGGUCAUAGGAUAUACUGGGACAGCGCUAAGGCGCCCUUGACAUGAGGAUCACCCAUGUAGAAGGAUGUCCGA [EX2 C.1] (Eterna round: R97, puzzle: Exclusion 2)", "Target Or Test System": "MS2 coat protein", "Unit Tag": "nM", "apparent KD of MS2 coat protein": 22.6}
{"Query Sequence": "GACGUGUUAGGAUAUAGCUCUCGGGACAGCAAUGAUCCGAGUUAGAAGGAACAUGAGGAUCACCCAUGUUAUUU [Eternabot (L2) Solution 60] (Eterna round: R97, puzzle: Exclusion 4)", "Target Or Test System": "MS2 coat protein", "Unit Tag": "nM", "apparent KD of MS2 coat protein": 21.1}
{"Query Sequence": "AAACCGGGCGCACCUCAGUCACAUGAGGAUCACCCAUGUUCUGAGGAUAUGCAUCCAAACGGAACGCAGAAGGCGGAACGUAAC [Bibidianer] (Eterna round: R96, puzzle: Exclusion NG 3)", "Target Or Test System": "MS2 coat protein", "Unit Tag": "nM", "apparent KD of MS2 coat protein": 13}
{"Query Sequence": "GUUUUCAGACGGAGAUCCUACAUGAGGAUCACCCAUGUCUCUCUUGUUAAUUGCUCGUCUUUUCCUCCUCUGUUCUC [Elimod 34 - Jieux - Sensor, turn-off variant 1] (Eterna round: R97, puzzle: Sensor, turn-off variant 1)", "Target Or Test System": "MS2 coat protein", "Unit Tag": "nM", "apparent KD of MS2 coat protein": 605}
{"Query Sequence": "AUAAUGUGAGGAUAUCAGUCGACUAGCUUCGGCUAGUCGACUGAGAAGGCACAUGAGGAUCACCCAUGUAGAUC [E4/17-A1] (Eterna round: R97, puzzle: Exclusion 4)", "Target Or Test System": "MS2 coat protein", "Unit Tag": "nM", "apparent KD of MS2 coat protein": 925}

###

Overview of reported apparent KD of MS2 coat protein across a group of sequences:
# System: MS2 coat protein
# Experiment Summary: apparent KD of MS2 coat protein; designed switch direction (-1 OFF switch, 1 ON switch): -1; higher = weaker reporter binding
# Experimental Setup: Eterna round: R95; input ligand: FMN 200 uM

{"Query Sequence": "AAAAAGCGAGGAUAUGCAUAAGGACCCGGGAGGGAAGUCGAACAUGAGGAUCACCCAUGUAGAAGGCGCAAAAA [Exclss2-IV] (puzzle: Exclusion 2)", "Unit Tag": "µM", "apparent KD of MS2 coat protein": 0.016}
{"Query Sequence": "AGUAGUAGUAUCCGAUCCUACAUGAGGAUCACCCAUGUGGCUAGACGUGCACGCGAUGCUCGUCAGACUACCAGAUG [salish99_TOv1_r3_038] (puzzle: Sensor v3, turn-off variant 1)", "Unit Tag": "µM", "apparent KD of MS2 coat protein": 0.404}
{"Query Sequence": "AGUAGUAGUAUCCGAUCUUACAUGAGGAUCACCCAUGUAUCUAGACGUGCACGCGAUGCUCGUCAGACUACCAGAUG [salish99_TOv1_r3_052] (puzzle: Sensor v3, turn-off variant 1)", "Unit Tag": "µM", "apparent KD of MS2 coat protein": 0.0493}
{"Query Sequence": "CUAGUCCGAGGAUAUAUUAUGUGAAACAUGAGGAUCACCCAUGUUAUAUGAUGGAUGAAAAUAGAAGGCGGACUAG [Mat - Exclusion 5 - JL mod - D61] (puzzle: Exclusion 5)", "Unit Tag": "µM", "apparent KD of MS2 coat protein": 0.0204}
{"Query Sequence": "ACAAGCUUUUUGUUCGUCUUAUAAAAUCCUAAGAGGAUAACAUGAGGAUCACCCAUGUAACAAAGACGGACUCAUGU [Sesor Array 13 - Jieux - Sensor v3, turn-off variant 2] (puzzle: Sensor v3, turn-off variant 2)", "Unit Tag": "µM", "apparent KD of MS2 coat protein": 0.0117}
